These measurements were taken from patent US20030148956A1.

measured_on: CRF1R
assay_overview: cell-based or functional assay
Ends that are not written are not given here.
Note to self: class = bucket of CRF1R EC50, per one: < 100 nM; two: ≥ 100 nM and < 400 nM; three: ≥ 400 nM

1) ZGPPISIDLPFQLLRKMIEIEKQEKEKQQAANNRLLLDTI (C-terminal amide) [SEQ ID NO 84]	one
2) ZGPPISIDLPLILLRKMIEIEKQEKEKQQAANNRLLLDTI (C-terminal amide) [SEQ ID NO 194]	two
3) ZGPPISIDLPTFLLRKMIEIEKQEKEKQQAANNRLLLDTI (C-terminal amide) [SEQ ID NO 44]	three
4) DNPSLSIDLPFILLRTLLELARTQSQRERAEQNAIIFASV-NH2 [SEQ ID NO 181]	two
5) ZGPPISIDLPAYLLRKMIEIEKQEKEKQQAANNRLLLDTI (C-terminal amide) [SEQ ID NO 32]	three
6) ZGPPISIDLPFYLLRKMIEIEKQEKEKQQAANNRLLLDTI (C-terminal amide) [SEQ ID NO 85]	one
7) ZGPPISIDLPLELLRKMIEIEKQEKEKQQAANNRLLLDTI (C-terminal amide) [SEQ ID NO 82]	one
8) ZGPPISIDLPAQLLRKMIEIEKQEKEKQQAANNRLLLDTI (C-terminal amide) [SEQ ID NO 211]	three
9) IVLSLDVPIGLLQILLEMTKADQLAQQAHSNRKLLDIA-NH2 [SEQ ID NO 155]	one
10) ZGPPISIDLPEYLLRKMIEIEKQEKEKQQAANNRLLLDTI (C-terminal amide) [SEQ ID NO 48]	three
11) ZGPPISIDLPTPLLRKMIEIEKQEKEKQQAANNRLLLDTI (C-terminal amide) [SEQ ID NO 52]	three
12) ZGPPISIDLPIVLLRKMIEIEKQEKEKQQAANNRLLLDTI (C-terminal amide) [SEQ ID NO 31]	three
13) ZGPPISIDLPTLLLRKMIEIEKQEKEKQQAANNRLLLDTI (C-terminal amide) [SEQ ID NO 51]	three
14) ZGPPISIDLPLVLLRKMIEIEKQEKEKQQAANNRLLLDTI (C-terminal amide) [SEQ ID NO 193]	two
15) IVLSLDVPIGLLQILIEIEKQEKEKQQAATTNARILARV-NH2 [SEQ ID NO 168]	three
16) ZGPPISIDLPIILLRKMIEIEKQEKEKQQAANNRLLLDTI (C-terminal amide) [SEQ ID NO 36]	three
